Where these numbers come from: ChEMBL document CHEMBL3352459

Target: Caspase-3 (Homo sapiens)
Sequence (P42574 29-175 limits assumed): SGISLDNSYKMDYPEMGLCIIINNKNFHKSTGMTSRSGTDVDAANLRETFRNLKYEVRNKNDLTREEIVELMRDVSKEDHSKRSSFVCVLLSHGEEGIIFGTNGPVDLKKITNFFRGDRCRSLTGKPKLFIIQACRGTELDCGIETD
Sequence (P42574 176-277 limits assumed): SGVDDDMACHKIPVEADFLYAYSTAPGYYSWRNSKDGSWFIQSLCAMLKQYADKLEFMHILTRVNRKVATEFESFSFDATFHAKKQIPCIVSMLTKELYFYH
Assay: Inhibition of recombinant human caspase-3 activity using Ac-DEVD-AMC as substrate preincubated for 10 mins by fluorescence assay
pIC50: −log10 of the molar value.
measurement-label: pIC50

Some compounds with recorded pIC50:
{"compound": "O=C(CCc1ccccc1F)n1sc2ccccc2c1=O", "tested-system": "Caspase-3 (Homo sapiens)", "pIC50": 6.89}
{"compound": "O=C(CCc1ccc(Cl)cc1)n1sc2ccccc2c1=O", "tested-system": "Caspase-3 (Homo sapiens)", "pIC50": 7.24}
{"compound": "COc1ccccc1CCC(=O)n1sc2ccccc2c1=O", "tested-system": "Caspase-3 (Homo sapiens)", "pIC50": 6.86}

a: Cc1cccc(CCC(=O)n2sc3ccccc3c2=O)c1
b: O=C(CCCc1ccccc1)n1sc2ccccc2c1=O
[Q] Hey, between a and b which has a smaller measured pIC50? Write down the label attached to your selection.
[A] b

P: O=C(Cc1ccc(F)cc1)n1sc2ccccc2c1=O
Q: O=C(Nc1ccc(N2CCOCC2)cc1)n1sc2ccccc2c1=O
R: COc1ccc(CCC(=O)n2sc3ccccc3c2=O)cc1
S: O=C(CCCCc1ccccc1)n1sc2ccccc2c1=O
[Q] Order the records, beginning with the lowest pIC50 and ending with the highest. # respond with the labels, arranged in the requested order
[A] P, S, Q, R
(P: 5.92, S: 6.51, Q: 6.97, R: 7.30)

I: O=C(Cc1cccc(Cl)c1)n1sc2ccccc2c1=O
II: O=C(CCc1ccc(F)cc1)n1sc2ccccc2c1=O
III: COc1ccc(CC(=O)n2sc3ccccc3c2=O)cc1
IV: COc1cccc(CC(=O)n2sc3ccccc3c2=O)c1
V: COc1cccc(CCC(=O)n2sc3ccccc3c2=O)c1
[Q] // sort entries: pIC50, high to low # respond with the labels, arranged in the requested order
[A] V, II, I, IV, III
(V: 7.46, II: 6.95, I: 6.57, IV: 6.26, III: 5.87)

A: O=C(Cc1ccc2ccccc2c1)n1sc2ccccc2c1=O
B: O=C(Cc1ccc(-c2ccccc2)cc1)n1sc2ccccc2c1=O
[Q] Would you let me know which has the greater pIC50 value, A or B ? Write down the label attached to your selection.
[A] B

----------
Target: UniProt P42574
Assay: Inhibition of recombinant human caspase-3 activity using Ac-DEVD-AMC as substrate preincubated for 10 mins by fluorescence assay
pIC50: −log10 of the molar value.
measurement-label: pIC50

Some compounds with recorded pIC50:
{"compound": "O=C(Cc1ccc(Cl)c(Cl)c1)n1sc2ccccc2c1=O", "measurement-label": "pIC50", "measured-value": 6.18}
{"compound": "Cc1ccc(CC(=O)n2sc3ccccc3c2=O)cc1", "measurement-label": "pIC50", "measured-value": 6.67}
{"compound": "O=C(CCC(=O)n1sc2ccccc2c1=O)c1cccs1", "measurement-label": "pIC50", "measured-value": 6.63}

A: Cc1ccccc1CC(=O)n1sc2ccccc2c1=O
B: O=C(Cc1cccc(F)c1)n1sc2ccccc2c1=O
C: O=C(CCCc1cccs1)n1sc2ccccc2c1=O
D: O=C(Cc1ccc(O)cc1)n1sc2ccccc2c1=O
[Q] Order the records, beginning with the lowest pIC50 and ending with the highest. # respond with the labels, arranged in the requested order
[A] B, D, A, C
